# Test system: MOLT-4 leukemia
# TEST NAME: NCI tumour cell line growth inhibition, 48 h

STRUCTURE AS SMILES	TGI (µM)
CCN(C)S(=O)(=O)Nc1cccc(Nc2ncnc3cc(NC(=O)CCl)ccc23)c1Cl	8.83
O=[N+]([O-])c1ccc(N(CCO)CCO)c2c1no[n+]2[O-]	5.18

* * *

# Tested on: SK-MEL-2 melanoma
# TEST NAME: NCI tumour cell line growth inhibition, 48 h

MOLECULE	TGI
CC(=O)OCCn1c(Cc2ccc([N+](=O)[O-])cc2)nn(C(C)=O)c1=O	> 100 µM
N#Cc1ccc(-n2cnc(NC(=O)[C@H]3CCN(C#N)C3)c2)cc1	4.09 µM
CC(C)(C)OC(=O)C(C1NC(C(=O)O)C(C)(C)S1)N1C(=O)c2ccccc2C1=O (stereo unspecified)	> 100 µM
CC(C)NC(C)Cc1ccccc1 (stereo unspecified)	> 100 µM
CC[n+]1[b-](C(C)(C)C)n(/N=C(\C)C(C)(C)C)[b-](C(C)(C)C)[n+]1CC	> 100 µM
Cc1c2n(c3ccccc13)CC1C2N(C)OC1(C)C (stereo unspecified)	> 100 µM

* * *

Reported TGI is given for each of the following compounds.
# Tested on: T-47D breast
# TEST NAME: NCI tumour cell line growth inhibition, 48 h

COMPOUND	TGI
O=C1c2c(Br)sc(Br)c2[C@H]2NC(=S)O[C@@H]12	69.3 µM
Cc1cc(S(=O)(=O)Nc2nc(N)n(C)n2)c(S)cc1Cl	> 10 µM
Cn1ncc2c(NCCc3ccccc3)nc(Cl)nc21	79.3 µM
C=CCC1(O)c2cccc(O)c2C(=O)c2c(O)cccc21	78.3 µM
COC(CNC(=O)C(C)NC(=O)C(C)NC(=O)c1ccccc1)OC (stereo unspecified)	> 100 µM
N#Cc1c(NC(=O)CCC(=O)O)ccc2ccccc12	> 100 µM

* * *

# Test system: NCI-H522 lung
# TEST NAME: NCI tumour cell line growth inhibition, 48 h
Measured log10 of TGI of individual entries
OBSERVABLE: log10 of TGI (log10 of the value in µM)

STRUCTURE AS SMILES	log10 of TGI
Cc1oc2c(c1C(=O)c1ccccc1)C(=O)c1ccccc1C2=O	0.77
C=CCC1(O)c2cccc(O)c2C(=O)c2c(O)cccc21	1.88
N#Cc1cccc(Nc2nccc(-c3cnn4ncccc34)n2)c1	-1.40
O=C(Nc1ccc(-n2cc(-c3ccncc3)c(-c3ccc(Cl)c(O)c3)n2)cc1)c1cc(Cl)cc(Cl)c1	0.90
C=C1CC2(OC1=O)c1ccccc1CCc1ccccc12	0.50
OCCOCCO[P+]1(OCCOCCO)n2c3ccc2C(c2ccccc2)=C2C=CC(=N2)C(c2ccccc2)=c2ccc(n21)=C(c1ccccc1)C1=NC(=C3c2ccccc2)C=C1	-0.35
Cc1c2c(cc[n+]1Cc1ccccc1)c1ccc(OCC3CCCCC3)cc1n2CC1CCCCC1	-0.10
CCCCc1ccc(Nc2nc(Cl)c3[nH]cnc3n2)cc1	1.81

* * *

# System: OVCAR-8 ovarian
# TEST NAME: NCI tumour cell line growth inhibition, 48 h; in the data active means GI50 below about 0.43 µM; inactive means the rest
Possible outcomes: T = active, F = inactive

MOLECULE	MEASURED TARGET	CATEGORY
NC1=C(c2nc(-c3cc4ccccc4oc3=O)cs2)C(c2ccco2)c2c(c3ccccc3oc2=O)O1 (stereo not given)	OVCAR-8 ovarian	F
O=C(N/N=C/c1cc2ccccc2c2ccccc12)c1cc(O)c(O)c(O)c1	OVCAR-8 ovarian	F
O=C(c1cccs1)c1c(C(F)(F)F)n([O-])c2cc(F)c(F)cc2[n+]1=O	OVCAR-8 ovarian	F
CCOC(=O)c1c(C)c2c(n1C)CSc1cc(S(=O)(=O)c3ccccc3)c(=O)[nH]c1-2	OVCAR-8 ovarian	F
CCN(C)S(=O)(=O)Nc1cccc(Nc2ncnc3cc(NC(=O)CCl)ccc23)c1Cl	OVCAR-8 ovarian	F
CS(=O)(=O)c1ccc(C(F)(F)F)cc1NC(=O)Nc1cnc(Oc2ccc(-c3cc(Cl)cnc3N)cc2)nc1	OVCAR-8 ovarian	F
O=C1C(Nc2ccccn2)=C(I)C(=O)c2ncccc21	OVCAR-8 ovarian	F
COc1ccc(OC)c(-c2nc3sccn3c2/C=C2/C(=O)Nc3ccccc32)c1	OVCAR-8 ovarian	F
N#CC1=C(N)Oc2c(sc3c(F)cccc23)C1c1ccc([N+](=O)[O-])cc1 (stereo not given)	OVCAR-8 ovarian	T
CN(C)CCCC1(c2ccc(F)cc2)OCc2cc(-c3ccc4cc[nH]c4c3)ccc21 (stereo not given)	OVCAR-8 ovarian	F
COC(=O)/C(=C/N1CCN(C(=O)c2ccco2)C1=S)C(C)=O	OVCAR-8 ovarian	F
Nc1cc(C(F)F)c(-c2nc(N3[C@@H]4CC[C@H]3COC4)nc(N3[C@@H]4CC[C@H]3COC4)n2)cn1	OVCAR-8 ovarian	F
N#Cc1cccc(Nc2nccc(-c3cnn4ncccc34)n2)c1	OVCAR-8 ovarian	T
Cc1cc(N2CCN(C)CC2)nc(NC2CCCC(Nc3ccnc4cc(Cl)ccc34)C2)n1 (stereo not given)	OVCAR-8 ovarian	F
Cc1c2c(cc[n+]1Cc1ccccc1)c1ccc(OCC3CCCCC3)cc1n2CC1CCCCC1	OVCAR-8 ovarian	T
